Target: α1d-AR (Homo sapiens)
Sequence (P25100 whole entry): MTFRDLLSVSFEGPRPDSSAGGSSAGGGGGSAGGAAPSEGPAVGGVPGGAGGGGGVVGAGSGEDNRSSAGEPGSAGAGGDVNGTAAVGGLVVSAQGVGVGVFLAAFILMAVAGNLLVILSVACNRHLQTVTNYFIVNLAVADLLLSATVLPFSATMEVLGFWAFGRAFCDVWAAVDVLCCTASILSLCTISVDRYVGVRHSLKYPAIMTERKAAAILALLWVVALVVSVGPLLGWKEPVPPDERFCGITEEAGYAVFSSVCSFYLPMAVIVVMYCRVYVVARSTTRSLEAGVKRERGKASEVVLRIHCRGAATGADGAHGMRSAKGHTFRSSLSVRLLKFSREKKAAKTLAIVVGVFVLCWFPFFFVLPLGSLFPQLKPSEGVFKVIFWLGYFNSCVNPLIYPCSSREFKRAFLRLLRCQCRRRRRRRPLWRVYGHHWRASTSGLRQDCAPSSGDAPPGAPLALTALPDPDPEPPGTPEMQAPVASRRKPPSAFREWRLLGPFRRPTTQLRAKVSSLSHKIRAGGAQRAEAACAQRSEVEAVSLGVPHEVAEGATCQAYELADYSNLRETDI
Assay: radioligand competition, [3H]prazosin
Format: binding
Conditions: Cheng-Prusoff
reported-property: pKi, human cloned receptor / α1 ^d
Reply: number alone, nothing else.

In the examples that follow, each entry is paired with its recorded pKi, human cloned receptor / α1 ^d.
> print(dat)
                                   compound    experimental.system                   reported.property  observed.result
1  c1ccc(C2(c3ccccc3)COCC(CNCCOc3ccc4c(c3)OCO4)O2)cc1 (stereo not shown)  α1d-AR (Homo sapiens)  pKi, human cloned receptor / α1 ^d             6.81
2  COc1cccc(OCCNCC2COCC(c3ccccc3)(c3ccccc3)O2)c1 (stereo not shown)  α1d-AR (Homo sapiens)  pKi, human cloned receptor / α1 ^d             6.98
3  Oc1cccc(OCCNCC2COCC(c3ccccc3)(c3ccccc3)O2)c1 (stereo not shown)  α1d-AR (Homo sapiens)  pKi, human cloned receptor / α1 ^d             6.56

Data request: Entry under review: Oc1ccc(OCCNCC2COCC(c3ccccc3)(c3ccccc3)O2)cc1 (stereo not shown) . Reported pKi, human cloned receptor / α1 ^d?
Data returned: 7.01

----------
Target: hD3 (Homo sapiens)
Sequence (P35462 whole entry): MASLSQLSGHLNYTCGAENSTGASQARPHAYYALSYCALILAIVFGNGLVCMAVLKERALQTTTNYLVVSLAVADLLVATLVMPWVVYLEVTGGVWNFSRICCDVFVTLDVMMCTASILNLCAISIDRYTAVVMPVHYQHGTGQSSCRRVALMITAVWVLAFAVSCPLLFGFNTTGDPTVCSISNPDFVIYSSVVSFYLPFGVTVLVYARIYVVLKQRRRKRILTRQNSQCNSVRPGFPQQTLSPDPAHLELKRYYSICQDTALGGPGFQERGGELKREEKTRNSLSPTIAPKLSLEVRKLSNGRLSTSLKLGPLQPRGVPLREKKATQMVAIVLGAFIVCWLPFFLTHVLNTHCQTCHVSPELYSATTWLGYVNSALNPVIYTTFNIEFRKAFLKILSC
Test: radioligand competition, [3H]N-methylspiperone
Type: binding
Details: Cheng-Prusoff
compounds and their reported pKi, human cloned receptor / D3
Reply: number alone, nothing else.

In the examples that follow, each entry is paired with its recorded pKi, human cloned receptor / D3.
> print(dat)
                                   compound  observed.result
1  COc1cccc(OCCNCC2COCC(c3ccccc3)(c3ccccc3)O2)c1 (centres unmarked) [compound 7]             7.37
2  Oc1ccc(OCCNCC2COCC(c3ccccc3)(c3ccccc3)O2)cc1 (centres unmarked) [compound 10, 10]             7.37
3  c1ccc(OCCNCC2COCC(c3ccccc3)(c3ccccc3)O2)cc1 (centres unmarked) [compound 4]             7.92
4  c1ccc(C2(c3ccccc3)COCC(CNCCOc3ccc4c(c3)OCO4)O2)cc1 (centres unmarked) [compound 13]             6.99
5  COc1ccc(OCCNCC2COCC(c3ccccc3)(c3ccccc3)O2)cc1OC (centres unmarked) [compound 12]             6.10

Data request: Entry under review: COc1cccc(OCCNCC2COCC(c3ccccc3)(c3ccccc3)O2)c1OC (centres unmarked) [compound 11] . Reported pKi, human cloned receptor / D3?
Data returned: 6.79

Data request: Request: COc1cccc(OC)c1OCCNCC1COCC(c2ccccc2)(c2ccccc2)O1 (centres unmarked) [compound 2, 2]
Data returned: 6.34

Data request: Request: COc1ccc(OCCNCC2COCC(c3ccccc3)(c3ccccc3)O2)cc1 (centres unmarked) [compound 9]
Data returned: 6.41

----------
Molecular target: hD4 (Homo sapiens, UniProt P21917)
Sequence (P21917 1-419): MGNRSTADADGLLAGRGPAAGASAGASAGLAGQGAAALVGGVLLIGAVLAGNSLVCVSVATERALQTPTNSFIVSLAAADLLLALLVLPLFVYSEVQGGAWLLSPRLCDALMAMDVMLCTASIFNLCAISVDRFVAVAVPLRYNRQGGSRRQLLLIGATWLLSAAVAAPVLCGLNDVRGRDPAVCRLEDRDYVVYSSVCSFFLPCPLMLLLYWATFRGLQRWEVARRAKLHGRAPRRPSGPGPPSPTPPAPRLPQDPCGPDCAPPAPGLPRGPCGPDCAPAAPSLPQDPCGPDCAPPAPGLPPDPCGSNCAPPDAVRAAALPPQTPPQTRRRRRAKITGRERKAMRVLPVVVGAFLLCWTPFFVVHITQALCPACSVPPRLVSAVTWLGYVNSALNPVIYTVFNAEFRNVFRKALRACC
Experiment: radioligand competition, [3H]N-methylspiperone
Format: binding
Conditions: Cheng-Prusoff
Label scheme for pKi, human cloned receptor / D4: lower than 6 is criterion not met, 6 and above is criterion met.

> print(dat)
                                   compound        label.value
1  COc1cccc(OC)c1OCCNCC1COCC(c2ccccc2)(c2ccccc2)O1 (stereo not shown)  criterion not met
2  COc1cccc(OCCNCC2COCC(c3ccccc3)(c3ccccc3)O2)c1OC (stereo not shown)      criterion met
3  Oc1ccc(OCCNCC2COCC(c3ccccc3)(c3ccccc3)O2)cc1 (stereo not shown)      criterion met
4  c1ccc(C2(c3ccccc3)COCC(CNCCOc3ccc4c(c3)OCO4)O2)cc1 (stereo not shown)      criterion met
5  COc1ccc(OCCNCC2COCC(c3ccccc3)(c3ccccc3)O2)cc1 (stereo not shown)      criterion met

// switching to the query compound
Data request: Hi, just wondering whether COc1cccc(OCCNCC2COCC(c3ccccc3)(c3ccccc3)O2)c1 (stereo not shown) shows pKi, human cloned receptor / D4 of 6 or higher.
Data returned: criterion met
